Target: Phosphatidylinositol 4,5-bisphosphate 3-kinase catalytic subunit alpha isoform (Homo sapiens)
Sequence (P42336 whole entry, canonical isoform): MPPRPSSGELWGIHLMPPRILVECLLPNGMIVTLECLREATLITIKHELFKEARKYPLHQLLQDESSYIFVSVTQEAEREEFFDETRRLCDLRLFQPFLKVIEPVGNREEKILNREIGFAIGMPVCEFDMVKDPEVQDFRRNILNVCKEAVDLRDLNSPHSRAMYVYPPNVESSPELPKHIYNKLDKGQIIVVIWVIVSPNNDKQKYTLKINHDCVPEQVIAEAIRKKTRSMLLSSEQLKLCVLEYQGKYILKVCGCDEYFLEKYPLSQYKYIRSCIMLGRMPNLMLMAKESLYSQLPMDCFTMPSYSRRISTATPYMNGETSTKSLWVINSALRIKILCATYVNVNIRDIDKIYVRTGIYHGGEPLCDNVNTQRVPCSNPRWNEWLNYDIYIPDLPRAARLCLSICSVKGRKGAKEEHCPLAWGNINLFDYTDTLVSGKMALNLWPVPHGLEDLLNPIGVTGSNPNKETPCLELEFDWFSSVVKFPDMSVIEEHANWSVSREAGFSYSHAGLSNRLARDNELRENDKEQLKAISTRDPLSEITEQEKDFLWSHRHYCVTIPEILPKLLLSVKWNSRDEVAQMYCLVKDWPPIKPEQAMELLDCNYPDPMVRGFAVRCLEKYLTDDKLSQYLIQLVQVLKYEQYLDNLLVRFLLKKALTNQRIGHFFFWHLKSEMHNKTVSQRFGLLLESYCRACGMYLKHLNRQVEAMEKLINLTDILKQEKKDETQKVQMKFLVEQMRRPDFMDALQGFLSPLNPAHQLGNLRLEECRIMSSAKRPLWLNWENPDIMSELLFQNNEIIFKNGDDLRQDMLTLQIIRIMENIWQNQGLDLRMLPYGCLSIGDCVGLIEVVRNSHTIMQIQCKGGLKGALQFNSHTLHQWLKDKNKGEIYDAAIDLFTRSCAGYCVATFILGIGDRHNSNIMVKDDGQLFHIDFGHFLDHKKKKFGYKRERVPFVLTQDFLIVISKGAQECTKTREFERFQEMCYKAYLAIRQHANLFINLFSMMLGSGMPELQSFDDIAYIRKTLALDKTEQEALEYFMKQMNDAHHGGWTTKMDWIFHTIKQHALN
Assay: Inhibition of PI3Kalpha (unknown origin) at 10 uM incubated for 60 mins by kinase-glo luminescence assay
assay readout: inhibition (%)

[[record]]
compound_structure = "O=c1nc(N2CCOCC2)oc2ccc(-c3cccc4c3sc3ccccc34)cc12"
reported_measurement = 0

[[record]]
compound_structure = "COc1ccc(-c2cc(Cl)cc3c(=O)nc(N4CCOCC4)oc23)cc1"
reported_measurement = 16

[[record]]
compound_structure = "Nc1cccc(-c2cccc3c(=O)nc(N4CCOCC4)oc23)c1"
reported_measurement = 13

[[record]]
compound_structure = "COc1ccc(-c2ccc3oc(N4CCOCC4)nc(=O)c3c2)cc1"
reported_measurement = 7

[[record]]
compound_structure = "O=c1nc(N2CCOCC2)oc2c(-c3cccc4c3oc3ccccc34)cccc12"
reported_measurement = 26

[[record]]
compound_structure = "O=c1nc(N2CCOCC2)oc2c(-c3cccc4c3sc3ccccc34)cccc12"
reported_measurement = 25

[[record]]
compound_structure = "O=c1nc(N2CCOCC2)oc2c(-c3cccs3)cc(Cl)cc12"
reported_measurement = 42

[[record]]
compound_structure = "O=c1nc(N2CCOCC2)oc2c(-c3cccnc3)cccc12"
reported_measurement = 26

[[record]]
compound_structure = "O=c1nc(N2CCOCC2)oc2ccc(-c3cc4ccccc4s3)cc12"
reported_measurement = 3

[[record]]
compound_structure = "O=c1nc(N2CCOCC2)oc2c(-c3cc4ccccc4s3)cc(Cl)cc12"
reported_measurement = 35

[[record]]
compound_structure = "O=c1nc(N2CCOCC2)oc2ccc(-c3cccnc3)cc12"
reported_measurement = 11


====

Entries and their inhibition
Target: Phosphatidylinositol 4,5-bisphosphate 3-kinase catalytic subunit beta isoform (Homo sapiens, UniProt P42338)
Sequence (P42338 whole entry, looked up, canonical isoform): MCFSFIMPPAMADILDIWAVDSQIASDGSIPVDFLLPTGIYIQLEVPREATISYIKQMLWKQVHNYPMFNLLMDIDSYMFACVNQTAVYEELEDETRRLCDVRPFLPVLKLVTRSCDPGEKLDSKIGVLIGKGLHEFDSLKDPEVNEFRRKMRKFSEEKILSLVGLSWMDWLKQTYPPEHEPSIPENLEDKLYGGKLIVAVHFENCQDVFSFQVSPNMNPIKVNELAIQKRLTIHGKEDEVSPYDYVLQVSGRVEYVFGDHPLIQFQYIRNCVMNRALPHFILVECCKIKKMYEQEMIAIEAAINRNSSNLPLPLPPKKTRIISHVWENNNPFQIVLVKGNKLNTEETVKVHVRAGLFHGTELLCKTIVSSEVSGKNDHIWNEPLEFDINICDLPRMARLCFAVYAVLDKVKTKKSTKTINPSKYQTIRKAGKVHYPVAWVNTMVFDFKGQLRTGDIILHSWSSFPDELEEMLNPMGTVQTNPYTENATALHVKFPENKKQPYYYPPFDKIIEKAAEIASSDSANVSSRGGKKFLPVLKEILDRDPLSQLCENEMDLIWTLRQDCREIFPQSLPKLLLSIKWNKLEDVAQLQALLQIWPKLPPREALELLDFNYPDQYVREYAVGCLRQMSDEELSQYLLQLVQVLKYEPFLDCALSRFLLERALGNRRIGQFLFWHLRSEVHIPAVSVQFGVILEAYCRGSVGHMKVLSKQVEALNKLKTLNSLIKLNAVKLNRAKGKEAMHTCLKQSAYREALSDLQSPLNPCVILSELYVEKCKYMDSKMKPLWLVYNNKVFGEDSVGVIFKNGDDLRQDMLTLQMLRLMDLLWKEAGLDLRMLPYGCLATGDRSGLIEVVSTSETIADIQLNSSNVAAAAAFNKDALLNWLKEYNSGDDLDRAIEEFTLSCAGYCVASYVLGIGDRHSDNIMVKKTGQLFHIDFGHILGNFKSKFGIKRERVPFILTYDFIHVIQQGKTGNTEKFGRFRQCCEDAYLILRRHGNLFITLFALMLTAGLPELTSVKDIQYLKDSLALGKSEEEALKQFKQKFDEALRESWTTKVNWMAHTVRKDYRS
Experiment: Inhibition of PI3Kbeta (unknown origin) at 10 uM incubated for 60 mins by kinase-glo luminescence assay
assay readout: inhibition (%)

[[record]]
compound_structure = "COc1ccc(-c2ccc3oc(N4CCOCC4)nc(=O)c3c2)cc1"
assay_readout = "inhibition"
reported_measurement = 17

[[record]]
compound_structure = "O=c1nc(N2CCOCC2)oc2ccc(-c3cccc4c3sc3ccccc34)cc12"
assay_readout = "inhibition"
reported_measurement = 21

[[record]]
compound_structure = "O=c1nc(N2CCOCC2)oc2ccc(-c3cccc4ccccc34)cc12"
assay_readout = "inhibition"
reported_measurement = 0

[[record]]
compound_structure = "O=c1nc(N2CCOCC2)oc2ccc(-c3ccc(Cl)cc3)cc12"
assay_readout = "inhibition"
reported_measurement = 0

[[record]]
compound_structure = "O=c1nc(N2CCOCC2)oc2ccc(-c3ccccc3)cc12"
assay_readout = "inhibition"
reported_measurement = 0

[[record]]
compound_structure = "O=c1nc(N2CCOCC2)oc2c(-c3ccc(Cl)cc3)cccc12"
assay_readout = "inhibition"
reported_measurement = 34

[[record]]
compound_structure = "COc1ccc(-c2cc(Cl)cc3c(=O)nc(N4CCOCC4)oc23)cc1"
assay_readout = "inhibition"
reported_measurement = 0

[[record]]
compound_structure = "O=c1nc(N2CCOCC2)oc2c(-c3cccs3)cccc12"
assay_readout = "inhibition"
reported_measurement = 43

[[record]]
compound_structure = "O=c1nc(N2CCOCC2)oc2ccc(-c3ccc(CO)cc3)cc12"
assay_readout = "inhibition"
reported_measurement = 0

[[record]]
compound_structure = "O=c1nc(N2CCOCC2)oc2c(-c3cc4ccccc4s3)cc(Cl)cc12"
assay_readout = "inhibition"
reported_measurement = 15

[[record]]
compound_structure = "O=c1nc(N2CCOCC2)oc2c(-c3cc4ccccc4s3)cccc12"
assay_readout = "inhibition"
reported_measurement = 15

